Items are presented alongside their recorded melting point.

Past entries and their recorded results:
INSERT INTO assay_data (structurestring, readoutkind, measvalue) VALUES
  ('COc1ccc(Oc2ccc(-c3c[nH]c(COc4ccccc4)n3)cc2)cc1', 'melting point', '132 to 134 °C'),
  ('CN(C)CCOc1ccc(-c2c[nH]c(COc3ccccc3)n2)cc1.Cl', 'melting point', '206 to 208 °C'),
  ('Fc1ccc(Oc2ccc(-c3c[nH]c(COc4ccccc4)n3)cc2)cc1F', 'melting point', '188 to 190 °C'),
  ('Fc1cc(F)cc(Oc2ccc(-c3c[nH]c(COc4ccccc4)n3)cc2)c1', 'melting point', '160 to 161 °C'),
  ('O=[N+]([O-])c1cccc(Oc2ccc(-c3c[nH]c(COc4ccccc4)n3)cc2)c1', 'melting point', '140 to 142 °C'),
  ('COCCOc1ccc(-c2c[nH]c(COc3ccccc3)n2)cc1', 'melting point', '159 to 161 °C'),
  ('Cl.NCC(=O)Nc1ccc(Oc2ccc(-c3c[nH]c(COc4ccccc4)n3)cc2)cc1', 'melting point', '> 250 °C'),
  ('N#Cc1cccc(Oc2ccc(-c3c[nH]c(COc4ccccc4)n3)cc2)c1', 'melting point', '161 to 163 °C');

// next item, melting point requested
Fill in the blank: the reported melting point of Fc1ccccc1Oc1ccc(-c2c[nH]c(COc3ccccc3)n2)cc1 is ____. 154 to 156 °C

* * *

readoutKind: melting point

INSERT INTO measurements (structurestring, readoutkind, measvalue) VALUES
  ('c1ccc(OCc2nc(-c3ccc(OCCN4CCOCC4)cc3)c[nH]2)cc1', 'melting point', '144 to 146 °C'),
  ('Fc1ccc(Oc2ccc(-c3c[nH]c(CSc4ccccc4)n3)cc2)cc1', 'melting point', '108 to 110 °C');

// next item, melting point requested
Fill in the blank: the reported melting point of c1ccc(OCc2nc(-c3ccc(Sc4ccccc4)cc3)c[nH]2)cc1 is ____. 144 to 146 °C

* * *

Items are presented alongside their recorded melting point.

Past entries and their recorded results:
INSERT INTO assay_data (compound, measvalue) VALUES
  ('c1ccc(Cc2ccc(-c3c[nH]c(COc4ccccc4)n3)cc2)cc1 [Example 48]', '147 to 148 °C'),
  ('Fc1ccc(OCc2nc(-c3ccc(Oc4ccc(F)cc4)cc3)c[nH]2)cc1 [Example 5]', '193 to 195 °C');

Fill in the blank: the reported melting point of O=[N+]([O-])c1ccc(Oc2ccc(-c3c[nH]c(COc4ccccc4)n3)cc2)cc1 [Example 15] is ____. 187 to 189 °C

* * *

Items are presented alongside their recorded melting point.

Past entries and their recorded results:
INSERT INTO measurements (structurestring, measvalue) VALUES
  ('Nc1ccc(Oc2ccc(-c3c[nH]c(COc4ccccc4)n3)cc2)cc1[N+](=O)[O-].O=C(O)C(F)(F)F', '178 to 180 °C'),
  ('FC(F)(F)CCCOc1ccc(-c2c[nH]c(COc3ccccc3)n2)cc1', '194 to 196 °C'),
  ('N#Cc1ccc(Oc2ccc(-c3c[nH]c(COc4ccccc4)n3)cc2)cc1', '179 to 181 °C'),
  ('O=[N+]([O-])c1ccccc1Oc1ccc(-c2c[nH]c(COc3ccccc3)n2)cc1', '128 to 129 °C'),
  ('Cl.Nc1cccc(Oc2ccc(-c3c[nH]c(COc4ccccc4)n3)cc2)c1', '> 300 °C');

// next item, melting point requested
Fill in the blank: the reported melting point of Clc1cccc(Oc2ccc(-c3c[nH]c(COc4ccccc4)n3)cc2)c1 is ____. 146 to 148 °C
